Provide the recorded Distribution for the entries that follow.
- System: Rattus norvegicus
- procedure-summary: % distribution of the radioiron in rat liver followed by intravenous injection of transferrin preincubated with 10 mg of chelating agent
- Assay type: ADME, organism-based
- condition-set: in vivo
Numbers only, in %.

Reference set, count: 5
compound: CC(=O)N(O)CCCCCNC(=O)CCC(=O)N(O)CCCCCNC(=O)CCC(=O)N(O)CCCCCN
recorded-metric: Distribution
number: 3
--
compound: Cc1ncc(CO)c(/C=N/NC(=O)c2ccncc2)c1O [PYRIDOXAL ISONICOTINOYL HYDRAZONE]
recorded-metric: Distribution
number: 9.6
--
compound: Cc1ncc(CO)c(/C=N/NC(=O)c2ccnc3ccccc23)c1O
recorded-metric: Distribution
number: 12.6
--
compound: Cc1ncc(CO)c(/C=N/NC(=O)c2cccnc2)c1O
recorded-metric: Distribution
number: 16.2
--
compound: COc1ccc(COC(=O)N/N=C/c2c(CO)cnc(C)c2O)cc1
recorded-metric: Distribution
number: 14.7

Proceed to the following item.
Which Distribution reading was recorded for the compound CC(=O)OCc1cnc(C)c(O)c1/C=N\NC(=O)c1ccncc1 ? 15.7

Origin of the recorded values: ChEMBL document CHEMBL1122337
